settings: in isopropanol, 323.15 K
property: solubility (mole fraction)

### Prompt For the compound shown here, `Nc1nnn[nH]1` , give the reported solubility (mole fraction).
### Response 0.00169

---

details: in toluene, 303.15 K
property: solubility (mole fraction)
No unit in the answer, only the number.

### Prompt Given `Nc1nnn[nH]1` , state its recorded solubility (mole fraction).
### Response 0.00229

---

settings: in n-propanol, 318.15 K
property: solubility (mole fraction)
I only need the number, thanks.

### Prompt What value of solubility (mole fraction) has been reported for the following compound? `Nc1nnn[nH]1`
### Response 0.00142

---

conditions: in DMF, 323.15 K
property: solubility (mole fraction)
Would you mind answering with just the numeric figure?

### Prompt Quick one: solubility (mole fraction) of `Nc1nnn[nH]1` ?
### Response 0.0795

---

conditions: in acetone, 298.15 K
property: solubility (mole fraction)
Just the number, please, no unit after it.

### Prompt May I ask what solubility (mole fraction) has been recorded for `Nc1nnn[nH]1` ?
### Response 0.00102

---

details: in ethanol, 318.15 K
property: solubility (mole fraction)
Give your answer as a number; write no unit.

### Prompt Record request: solubility (mole fraction) value, item `Nc1nnn[nH]1`
### Response 0.0016

---

conditions: in n-propanol, 283.15 K
property: solubility (mole fraction)
Lab note: write the figure by itself, no unit.

### Prompt Could you tell me which solubility (mole fraction) is on file for `Nc1nnn[nH]1` ?
### Response 0.000694

---

settings: in acetone, 283.15 K
property: solubility (mole fraction)

### Prompt Data request, read-out solubility (mole fraction), for `Nc1nnn[nH]1`
### Response 0.000749

---

settings: in acetonitrile, 288.15 K
property: solubility (mole fraction)
Give the figure by itself; no unit, no explanation.

### Prompt Which solubility (mole fraction) reading was recorded for the compound `Nc1nnn[nH]1` ?
### Response 0.000213

---

details: in ethyl acetate, 303.15 K
property: solubility (mole fraction)
Form: value (number only, do not type unit).

### Prompt Fill in the blank: the reported solubility (mole fraction) of `Nc1nnn[nH]1` is ____.
### Response 0.000834

---

conditions: in methanol, 288.15 K
property: solubility (mole fraction)
Please state the value as a number alone, without comment.

### Prompt Fill in: solubility (mole fraction) of `Nc1nnn[nH]1` is ___
### Response 0.000681

---

conditions: in acetone, 303.15 K
property: solubility (mole fraction)
Write no unit; give the number alone.

### Prompt I would be grateful if you could share the reported solubility (mole fraction) for `Nc1nnn[nH]1` .
### Response 0.00112

---

details: in methanol, 303.15 K
property: solubility (mole fraction)
Response field accepts a number only; no unit should be typed.

### Prompt Please look up its solubility (mole fraction): `Nc1nnn[nH]1`
### Response 0.000954

---

conditions: in isopropanol, 298.15 K
property: solubility (mole fraction)
# output: bare number, no unit

### Prompt Suppose we examine the compound `Nc1nnn[nH]1` ; what solubility (mole fraction) value has been reported?
### Response 0.00105

---

details: in n-butanol, 313.15 K
property: solubility (mole fraction)
Output: the number by itself.

### Prompt I have this compound here, `Nc1nnn[nH]1` , and I need its recorded solubility (mole fraction).
### Response 0.001

---

settings: in acetone, 323.15 K
property: solubility (mole fraction)
Answer using only a numeral; do not append any unit.

### Prompt Query (molecule): `Nc1nnn[nH]1` ; field requested: solubility (mole fraction)
### Response 0.00162

---

settings: in ethyl acetate, 323.15 K
property: solubility (mole fraction)
Format: numeric value only, no unit, no commentary.

### Prompt Which measured solubility (mole fraction) value corresponds to `Nc1nnn[nH]1` ?
### Response 0.00139

---

settings: in toluene, 318.15 K
property: solubility (mole fraction)

### Prompt Please look up its solubility (mole fraction): `Nc1nnn[nH]1`
### Response 0.00335

---

settings: in ethyl acetate, 293.15 K
property: solubility (mole fraction)
Reply with the value as a number alone.

### Prompt Value lookup for solubility (mole fraction); key = `Nc1nnn[nH]1`
### Response 0.000649

---

conditions: in ethanol, 283.15 K
property: solubility (mole fraction)
Give your answer as a number; write no unit.

### Prompt Using the record for `Nc1nnn[nH]1` , report its solubility (mole fraction).
### Response 0.0008

---

conditions: in acetonitrile, 283.15 K
property: solubility (mole fraction)
Could you respond with only the numeric value?

### Prompt Form field: reported solubility (mole fraction) of `Nc1nnn[nH]1`
### Response 0.000193

---

conditions: in DMF, 288.15 K
property: solubility (mole fraction)

### Prompt Item `Nc1nnn[nH]1` has what recorded solubility (mole fraction)?
### Response 0.0326

---

settings: in NMP, 293.15 K
property: solubility (mole fraction)
// print number alone

### Prompt Record request: solubility (mole fraction) value, item `Nc1nnn[nH]1`
### Response 0.0312

---

settings: in isopropanol, 318.15 K
property: solubility (mole fraction)
Answer with the value's number alone.

### Prompt Endpoint output: solubility (mole fraction) of `Nc1nnn[nH]1` . Value?
### Response 0.00154

---

details: in 1,4-dioxane, 323.15 K
property: solubility (mole fraction)
Please give only the number in your answer, with no unit.

### Prompt State the recorded solubility (mole fraction) for this entry: `Nc1nnn[nH]1`
### Response 0.0652

---

settings: in toluene, 323.15 K
property: solubility (mole fraction)
I only need the number, thanks.

### Prompt What measured solubility (mole fraction) goes with `Nc1nnn[nH]1` ?
### Response 0.00381

---

conditions: in acetone, 313.15 K
property: solubility (mole fraction)
// no unit, no text: just the number

### Prompt What solubility (mole fraction) value was documented for this compound, `Nc1nnn[nH]1` ?
### Response 0.00135

---

conditions: in acetonitrile, 298.15 K
property: solubility (mole fraction)
Please give the numeric answer without any surrounding text.

### Prompt Returns the measured solubility (mole fraction) for the input molecule. Input: `Nc1nnn[nH]1`
### Response 0.000256

---

conditions: in methanol, 283.15 K
property: solubility (mole fraction)
// no unit string in output, number only

### Prompt Look at this compound and give its reported solubility (mole fraction). `Nc1nnn[nH]1`
### Response 0.000615

---

conditions: in 1,4-dioxane, 313.15 K
property: solubility (mole fraction)

### Prompt Any idea what its solubility (mole fraction) is? The compound is `Nc1nnn[nH]1`
### Response 0.0463

---

settings: in acetonitrile, 308.15 K
property: solubility (mole fraction)
# answer = number (no unit)

### Prompt Tell me the measured solubility (mole fraction) of `Nc1nnn[nH]1` , please.
### Response 0.000304

---

details: in ethyl acetate, 298.15 K
property: solubility (mole fraction)
Provide a numeric answer; units are not to be included.

### Prompt Name the recorded solubility (mole fraction) for `Nc1nnn[nH]1` .
### Response 0.000734

---

details: in n-butanol, 293.15 K
property: solubility (mole fraction)
Answer with a number only.

### Prompt Dear colleague, I am looking for the recorded solubility (mole fraction) of the following compound: `Nc1nnn[nH]1`
### Response 0.000577

---

conditions: in toluene, 308.15 K
property: solubility (mole fraction)
Please reply with the value in numeric form only.

### Prompt Would you mind telling me what solubility (mole fraction) value was observed for `Nc1nnn[nH]1` ?
### Response 0.0026

---

settings: in toluene, 313.15 K
property: solubility (mole fraction)
Give the figure only, with no unit attached.

### Prompt What does the record list as solubility (mole fraction) for `Nc1nnn[nH]1` ?
### Response 0.00295

---

details: in ethanol, 323.15 K
property: solubility (mole fraction)
Give only the figure.

### Prompt Which solubility (mole fraction) reading was recorded for the compound `Nc1nnn[nH]1` ?
### Response 0.00175

---

details: in ethanol, 298.15 K
property: solubility (mole fraction)
Give a plain numeric answer without units written out.

### Prompt Entry `Nc1nnn[nH]1` has what solubility (mole fraction)?
### Response 0.00109

---

settings: in n-butanol, 323.15 K
property: solubility (mole fraction)
In your answer, state the number alone without any accompanying words.

### Prompt Give its solubility (mole fraction) value. Item: `Nc1nnn[nH]1`
### Response 0.00131

---

settings: in acetonitrile, 318.15 K
property: solubility (mole fraction)
API doc: respond with a numeric literal and nothing else, no unit.

### Prompt Name the recorded solubility (mole fraction) for `Nc1nnn[nH]1` .
### Response 0.000357

---

details: in NMP, 308.15 K
property: solubility (mole fraction)
Number, no unit, nothing else.

### Prompt Given the compound `Nc1nnn[nH]1` , what is its reported solubility (mole fraction)?
### Response 0.0502

---

settings: in acetonitrile, 323.15 K
property: solubility (mole fraction)
Just the number, please, no unit attached.

### Prompt Find the recorded solubility (mole fraction) belonging to `Nc1nnn[nH]1` and report it.
### Response 0.000385
